Just for reference, patent US20260193221A1 is where these values come from.

test: Solubility, Experiment 1 (target concentration 2 mg/mL); format: physicochemical; details: acetate buffer (50 mM), pH 4.5, 37 °C, pH 4.5, aqueous buffer, thermodynamic from solid, pH 4.5, 2 h, target concentration 2 mg/mL
ASSAY_ENDPOINT: solubility at 2 h (µg/mL)
Write the answer as a number in µg/mL, unit excluded.

Q: Dear colleague, I am looking for the recorded solubility at 2 h of the following compound: O=S1(=O)Nc2c(cc(F)c(F)c2Nc2ccc(I)cc2F)OC[C@H](O)[C@H](O)CC12CC2 [Form A]
Ans: 12

====

assay: Phase 1 clinical trial, pharmacokinetics; assay type: in vivo, human; conditions: human, plasma, po, 2 mg, Day 22 (steady state); oral once daily; patients; geometric mean (geometric CV %)
ASSAY_ENDPOINT: Cmax (ng/mL)
Reply numerically in ng/mL, unit not repeated.

Q: Item under review: `O=S1(=O)Nc2c(cc(F)c(F)c2Nc2ccc(I)cc2F)OC[C@H](O)[C@H](O)CC12CC2` . Reported Cmax?
Ans: 16.2

====

assay: Solubility, Experiment 1 (target concentration 2 mg/mL); type: physicochemical; conditions: HCl solution, pH 1.2, 37 °C, pH 1.2, simulated gastric fluid, thermodynamic from solid, pH 1.2, 2 h, target concentration 2 mg/mL
ASSAY_ENDPOINT: solubility at 2 h (µg/mL)
Entry rule: numbers only, all in µg/mL.

Q: So what's the measured solubility at 2 h for this one? O=S1(=O)Nc2c(cc(F)c(F)c2Nc2ccc(I)cc2F)OC[C@H](O)[C@H](O)CC12CC2 [Form A]
Ans: 12

====

test: Phase 1 clinical trial, pharmacokinetics; assay type: in vivo, human; settings: human, plasma, po, 2 mg and 4 mg cohorts; oral; patients; read-out: mean elimination half-life (converted)
ASSAY_ENDPOINT: half-life (h)
Express your answer in h, writing the number without its unit.

Q: Reported half-life, compound `O=S1(=O)Nc2c(cc(F)c(F)c2Nc2ccc(I)cc2F)OC[C@H](O)[C@H](O)CC12CC2` : ____
Ans: 67.9

====

assay: Phase 1 clinical trial, pharmacokinetics; format: in vivo, human; conditions: human, plasma, po, 2 mg and 4 mg cohorts; oral; patients; read-out: half-life (converted)
ASSAY_ENDPOINT: half-life

Q: Consider the compound shown here: `O=S1(=O)Nc2c(cc(F)c(F)c2Nc2ccc(I)cc2F)OC[C@H](O)[C@H](O)CC12CC2` What is its recorded half-life?
Ans: ~70 h

====

experiment: Solubility, Experiment 1 (target concentration 2 mg/mL); type: physicochemical; details: FaSSGF, pH 1.6, 37 °C, pH 1.6, fassgf or other biorelevant, thermodynamic from solid, pH 1.6, 2 h, target concentration 2 mg/mL
ASSAY_ENDPOINT: solubility at 2 h (µg/mL)
// return numeric value only (unit: µg/mL, not printed)

Q: # lookup: solubility at 2 h of O=S1(=O)Nc2c(cc(F)c(F)c2Nc2ccc(I)cc2F)OC[C@H](O)[C@H](O)CC12CC2 [Form A]
Ans: 12

====

assay: Phase 1 clinical trial, pharmacokinetics; format: in vivo, human; details: human, plasma, po, 2 mg, Day 1; oral; patients; geometric mean (geometric CV %)
ASSAY_ENDPOINT: Cmax (ng/mL)
// note: answer is a bare numeric in ng/mL

Q: Consider the molecule O=S1(=O)Nc2c(cc(F)c(F)c2Nc2ccc(I)cc2F)OC[C@H](O)[C@H](O)CC12CC2 [Compound 1] and give its measured Cmax.
Ans: 4.91
